assay: Prodrug in vivo pharmacokinetics in dogs after intravenous administration (LC-MS-MS of prodrug and parent); conditions: beagle, dog, in vivo, iv, 0.7 mg/kg, CL, Example 31 in plasma, IV Example 31 at 0.7 mg/kg, Dog 02
Metric name: clearance (mL/min/kg)
The figure you give is taken to be in mL/min/kg; do not add the unit.

Please give the measured clearance for this compound: O=C(O[C@H](COP(=O)([O-])[O-])C(F)(F)F)N1CCC2(CC1)C[C@@H](NS(=O)(=O)c1ccccc1)CO2.[Na+].[Na+] [Example 31] 216

###

molecular target: human recombinant Monoacylglycerol Lipase (Homo sapiens, UniProt Q99685); assay: MAGL inhibition enzymatic assay, fluorogenic substrate 7-HCA, IC50 at T=0 min or after 30 minute incubation (T=30 min); assay type: biochemical; conditions: T = 30 min (30 minute incubation); geometric mean of 2-4 determinations unless otherwise indicated; read-out: MAGL (T = 30 min) IC50
Metric name: IC50 (nM)
The figure you give is taken to be in nM; do not add the unit.

- COc1ccc(-n2ccc([C@H]3[C@@H]4CN(C(=O)O[C@H](CO)C(F)(F)F)C[C@@H]43)n2)nc1: 14
- O=C(OC(C(F)(F)F)C(F)(F)CO)N1CCC2(CC1)CN(S(=O)(=O)c1ccc(F)cc1)CCO2 (single isomer, unassigned; ent-2) [Example 21]: 53
- O=C(O[C@H](CO)C(F)(F)F)N1CCC2(CC1)CCN(C(=O)c1ccccc1F)C2: 7

Next item in the queue.
Please give the measured IC50 for this compound: `CN([C@H]1COC2(CCN(C(=O)O[C@H](CO)C(F)(F)F)CC2)C1)S(=O)(=O)C1CC1` 29

###

Biological target: human recombinant Monoacylglycerol Lipase (Homo sapiens)
Sequence (Q99685 1-303): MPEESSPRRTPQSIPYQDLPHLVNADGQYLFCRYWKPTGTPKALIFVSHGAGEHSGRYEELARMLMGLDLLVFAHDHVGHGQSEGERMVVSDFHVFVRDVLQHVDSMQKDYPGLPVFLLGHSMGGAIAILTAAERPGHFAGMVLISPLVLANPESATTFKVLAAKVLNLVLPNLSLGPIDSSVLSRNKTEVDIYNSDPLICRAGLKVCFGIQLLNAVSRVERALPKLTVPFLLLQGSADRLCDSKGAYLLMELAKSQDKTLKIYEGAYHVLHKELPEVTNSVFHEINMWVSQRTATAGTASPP
Experiment: MAGL inactivation, enzyme progress curves, kinact/KI
Assay type: biochemical
Details: from enzyme progress curves, T = 0 min protocol; geometric mean of 2-4 determinations unless otherwise indicated
Metric name: MAGL kinact/KI

// below: answered compounds
* C#Cc1ccc(-n2ccc([C@H]3[C@@H]4CN(C(=O)O[C@H](CO)C(F)(F)F)C[C@@H]43)n2)cc1 [Example 81] | 45138 1/s per M
* CN([C@H]1COC2(CCN(C(=O)O[C@H](CO)C(F)(F)F)CC2)C1)S(=O)(=O)CC(F)(F)F [Example 137] | 7582 1/s per M
* Cc1ccc(CC2COC3(CCN(C(=O)O[C@H](CO)C(F)(F)F)CC3)C2)nc1 (mixture of isomers) [Example 102] | 1336 1/s per M

Field: MAGL kinact/KI (human recombinant Monoacylglycerol Lipase (Homo sapiens)). Entry: O=C(O[C@H](CO)C(F)(F)F)N1CCC2(CC1)CC(c1cccc(OC(F)(F)F)c1)CO2 (mixture of isomers) [Example 118] 172844 1/s per M

All values here come from patent US10723711B2.
